Form field: bioavailability (one value per entry).
- Measurement Protocol: Oral bioavailability in cynomolgus monkey at 5 mg/kg
- Assay type: ADME, organism-based, Macaca fascicularis
- Condition Context: in vivo

CNS(=O)(=O)Nc1cccc(Cc2c(C)c3cc(Cl)c(OC(=O)N(C)C)cc3oc2=O)c1 | < 5%

Attention now turns to another entry.
Exercise: Endpoint output: bioavailability of "Cc1c(Cc2cccc(NS(N)(=O)=O)c2F)c(=O)oc2cc(OC(=O)N(C)C)c(F)cc12" . Value?
Key: 30%

* * *

- Measurement Protocol: Oral bioavailability in BALB-nu/nu mouse at 20 mg/kg
- Format: ADME, organism-based
- Condition Context: in vivo
Recorded Metric: bioavailability (%)
Give the value, in units of %, as a plain number.

Exercise: Bench note: what bioavailability did "Cc1c(Cc2cccc(NS(N)(=O)=O)c2F)c(=O)oc2cc(OC(=O)N(C)C)c(F)cc12" show?
Key: 51
